- measurement-target: HLA-A*30:02 (Homo sapiens, UniProt P04439, D101N/D140H/D185E/E176R/F33S/G80R/H175R/K168Q/Q94H/R138E/R41S/V100E)
- Assay type: binding
- study-conditions: peptide titrated 10−4 to 10−9 M
Aff A*30:02 (ED50) values, listed per item
measurement-label: Aff A*30:02 (ED50) (nM)

[[record]]
query_sequence = "ATATELNNA [Rv3875_60–68]"
measurement_label = "Aff A*30:02 (ED50)"
unit = "nM"
measured_number = 300

[[record]]
query_sequence = "MTEQQWNFA [Rv3875_1–9]"
measurement_label = "Aff A*30:02 (ED50)"
unit = "nM"
measured_number = 20

[[record]]
query_sequence = "LAAAWGGSG [Rv3875_39-47]"
measurement_label = "Aff A*30:02 (ED50)"
unit = "nM"
measured_number = 7

[[record]]
query_sequence = "AGQAMASTE [Rv3875_79–87]"
measurement_label = "Aff A*30:02 (ED50)"
unit = "nM"
measured_number = 5

[[record]]
query_sequence = "RTISEAGQA [Rv3875_74–82]"
measurement_label = "Aff A*30:02 (ED50)"
unit = "nM"
measured_number = 30

[[record]]
query_sequence = "LQNLARTIS [Rv3875_69–77]"
measurement_label = "Aff A*30:02 (ED50)"
unit = "nM"
measured_number = 10

[[record]]
query_sequence = "AWGGSGSEA [Rv3875_42–50]"
measurement_label = "Aff A*30:02 (ED50)"
unit = "nM"
measured_number = 800

[[record]]
query_sequence = "GVQQKWDAT [Rv3875_53–61]"
measurement_label = "Aff A*30:02 (ED50)"
unit = "nM"
measured_number = 30


----------
- measurement-target: HLA-B*07:02 (Homo sapiens, UniProt P01889)
- Format: binding
- study-conditions: percent relative the binding of positive control peptide […]; duplicated experiments; positive binder >40%
measurement-label: Bind B*07:02

[[record]]
substance = "KLAAAWGGS [Rv3875_38-46]"
measurement_label = "Bind B*07:02"
result = "6%"

[[record]]
substance = "GLSMAGSSA"
measurement_label = "Bind B*07:02"
result = "31%"

[[record]]
substance = "AAAWGGSGS [Rv3875_40-48]"
measurement_label = "Bind B*07:02"
result = "4%"

[[record]]
substance = "SLSALLDPS"
measurement_label = "Bind B*07:02"
result = "1%"

[[record]]
substance = "LLDGLRAQD"
measurement_label = "Bind B*07:02"
result = "0%"

[[record]]
substance = "LAAYHPQQF"
measurement_label = "Bind B*07:02"
result = "74%"

[[record]]
substance = "SQGMGPSLI"
measurement_label = "Bind B*07:02"
result = "2%"

[[record]]
substance = "AAWGGSGSE [Rv3875_41–49]"
measurement_label = "Bind B*07:02"
result = "4%"

[[record]]
substance = "YSDWYSPAC"
measurement_label = "Bind B*07:02"
result = "0%"

[[record]]
substance = "LTSELPQW L"
measurement_label = "Bind B*07:02"
result = "7%"

[[record]]
substance = "NNTRLW VYC"
measurement_label = "Bind B*07:02"
result = "4%"

[[record]]
substance = "NAVFNFPPN"
measurement_label = "Bind B*07:02"
result = "5%"

[[record]]
substance = "KAADMW GPS"
measurement_label = "Bind B*07:02"
result = "18%"

[[record]]
substance = "RLWVYCGNG"
measurement_label = "Bind B*07:02"
result = "2%"

[[record]]
substance = "VMPVGGQSS"
measurement_label = "Bind B*07:02"
result = "0%"

[[record]]
substance = "FVRSSNLKF"
measurement_label = "Bind B*07:02"
result = "114%"

[[record]]
substance = "AGQAMASTE [Rv3875_79–87]"
measurement_label = "Bind B*07:02"
result = "9%"

[[record]]
substance = "GSSAMILAA"
measurement_label = "Bind B*07:02"
result = "5%"

[[record]]
substance = "NGT HSWEYW"
measurement_label = "Bind B*07:02"
result = "4%"

[[record]]
substance = "MTEQQWNFA [Rv3875_1–9]"
measurement_label = "Bind B*07:02"
result = "2%"

[[record]]
substance = "SMAGSSAMI"
measurement_label = "Bind B*07:02"
result = "14%"

[[record]]
substance = "ALLDPSQGM"
measurement_label = "Bind B*07:02"
result = "17%"

[[record]]
substance = "RAVKPT GSA"
measurement_label = "Bind B*07:02"
result = "84%"

[[record]]
substance = "QIMYNYPTM [Rv0288_3–11m1]"
measurement_label = "Bind B*07:02"
result = "5%"

[[record]]
substance = "TATELNNAL [Rv3875_61–69]"
measurement_label = "Bind B*07:02"
result = "12%"

[[record]]
substance = "GMGPSLIGL"
measurement_label = "Bind B*07:02"
result = "5%"

[[record]]
substance = "DINTPAFEW"
measurement_label = "Bind B*07:02"
result = "9%"

[[record]]
substance = "FLENFVRSS"
measurement_label = "Bind B*07:02"
result = "0%"

[[record]]
substance = "SAAIGLSMA"
measurement_label = "Bind B*07:02"
result = "31%"

[[record]]
substance = "KPTGSAAIG"
measurement_label = "Bind B*07:02"
result = "51%"

[[record]]
substance = "GT HSWEYWG"
measurement_label = "Bind B*07:02"
result = "3%"

[[record]]
substance = "SAIQGNVTS [Rv3875_16–24]"
measurement_label = "Bind B*07:02"
result = "4%"

[[record]]
substance = "THSWEYWGA"
measurement_label = "Bind B*07:02"
result = "2%"

[[record]]
substance = "SLTKLAAAW [Rv3875_35–43]"
measurement_label = "Bind B*07:02"
result = "5%"

[[record]]
substance = "ACGKAGCQT"
measurement_label = "Bind B*07:02"
result = "9%"

[[record]]
substance = "ILAAYHPQQ"
measurement_label = "Bind B*07:02"
result = "1%"

[[record]]
substance = "YNAAGGHNA"
measurement_label = "Bind B*07:02"
result = "0%"

[[record]]
substance = "SPACGKAGC"
measurement_label = "Bind B*07:02"
result = "77%"

[[record]]
substance = "AQLNAMKGD"
measurement_label = "Bind B*07:02"
result = "0%"

[[record]]
substance = "NGW DINTPA"
measurement_label = "Bind B*07:02"
result = "21%"

[[record]]
substance = "GKAGCQTYK"
measurement_label = "Bind B*07:02"
result = "9%"

[[record]]
substance = "FIYAGSLSA"
measurement_label = "Bind B*07:02"
result = "70%"

[[record]]
substance = "GNNSPAVYL"
measurement_label = "Bind B*07:02"
result = "0%"

[[record]]
substance = "EAYQGVQQK [Rv3875_49–57]"
measurement_label = "Bind B*07:02"
result = "10%"

[[record]]
substance = "YYQSGLSIV"
measurement_label = "Bind B*07:02"
result = "0%"

[[record]]
substance = "PQWLSANRA"
measurement_label = "Bind B*07:02"
result = "14%"

[[record]]
substance = "KGDLQSSLG"
measurement_label = "Bind B*07:02"
result = "6%"

[[record]]
substance = "EAAASAIQG [Rv3875_12–20]"
measurement_label = "Bind B*07:02"
result = "5%"

[[record]]
substance = "AMASTEGNV [Rv3875_82–90]"
measurement_label = "Bind B*07:02"
result = "11%"

[[record]]
substance = "QWLSANRAV"
measurement_label = "Bind B*07:02"
result = "25%"

[[record]]
substance = "SLIGLAMGD"
measurement_label = "Bind B*07:02"
result = "3%"

[[record]]
substance = "NFPPNGTHS"
measurement_label = "Bind B*07:02"
result = "0%"

[[record]]
substance = "MGDAGGYKA"
measurement_label = "Bind B*07:02"
result = "0%"

[[record]]
substance = "NLKFQDAYN"
measurement_label = "Bind B*07:02"
result = "0%"

[[record]]
substance = "AMKGDLQSS"
measurement_label = "Bind B*07:02"
result = "9%"

[[record]]
substance = "ELGGANIPA"
measurement_label = "Bind B*07:02"
result = "0%"

[[record]]
substance = "IVMPVGGQS"
measurement_label = "Bind B*07:02"
result = "51%"

[[record]]
substance = "DGLRAQDDY"
measurement_label = "Bind B*07:02"
result = "1%"

[[record]]
substance = "DAYNAAGGH"
measurement_label = "Bind B*07:02"
result = "12%"

[[record]]
substance = "ATATELNNA [Rv3875_60–68]"
measurement_label = "Bind B*07:02"
result = "12%"

[[record]]
substance = "IPKLVANNT"
measurement_label = "Bind B*07:02"
result = "41%"

[[record]]
substance = "AVKPTGSAA"
measurement_label = "Bind B*07:02"
result = "82%"

[[record]]
substance = "VYLLDGLRA"
measurement_label = "Bind B*07:02"
result = "0%"

[[record]]
substance = "SAMILAAYH"
measurement_label = "Bind B*07:02"
result = "7%"

[[record]]
substance = "GGYKAADMW"
measurement_label = "Bind B*07:02"
result = "0%"

[[record]]
substance = "MAGSSAMIL"
measurement_label = "Bind B*07:02"
result = "57%"

[[record]]
substance = "SNLKFQDAY"
measurement_label = "Bind B*07:02"
result = "0%"

[[record]]
substance = "GGHNAVFNF"
measurement_label = "Bind B*07:02"
result = "19%"

[[record]]
substance = "NAMKGDLQS"
measurement_label = "Bind B*07:02"
result = "6%"

[[record]]
substance = "PVGGQSSFY"
measurement_label = "Bind B*07:02"
result = "0%"

[[record]]
substance = "LKFQDAYNA"
measurement_label = "Bind B*07:02"
result = "0%"

[[record]]
substance = "GWDINTPAF"
measurement_label = "Bind B*07:02"
result = "22%"

[[record]]
substance = "KAGCQTYKW"
measurement_label = "Bind B*07:02"
result = "9%"

[[record]]
substance = "NAAGGHNAV"
measurement_label = "Bind B*07:02"
result = "16%"

[[record]]
substance = "LLDEGKQSL [Rv3875_28–36]"
measurement_label = "Bind B*07:02"
result = "3%"

[[record]]
substance = "AYQGVQQKW [Rv3875_50–58]"
measurement_label = "Bind B*07:02"
result = "10%"

[[record]]
substance = "GLSIVMPVG"
measurement_label = "Bind B*07:02"
result = "0%"

[[record]]
substance = "SSFYSDWYS"
measurement_label = "Bind B*07:02"
result = "0%"

[[record]]
substance = "IMYNYPTML [Rv0288_4–12m1]"
measurement_label = "Bind B*07:02"
result = "7%"

[[record]]
substance = "GTPNELGGA"
measurement_label = "Bind B*07:02"
result = "0%"

[[record]]
substance = "LIGLAMGDA"
measurement_label = "Bind B*07:02"
result = "0%"


Reference source for all entries: paper PMC3608651
